System: OVCAR-8 ovarian
Test: NCI tumour cell line growth inhibition, 48 h
# GI50 per record follows

COc1ccc2c(c1)C(=O)c1c-2c(N(C)C)nc2ccccc12 :: > 100000 nM
COc1cccc(-n2ncc3c(N/N=C/c4ccncc4)ncnc32)c1 :: 4880 nM
COc1ccc(C(=O)/C=C/c2c(Cl)c3c(c(OC)c2Cl)OCC(=O)N3)cc1 :: 2850 nM
CN(C)c1ccc2c(c1)OC(N)=C(C#N)C2c1ccc2c(c1)CCO2 (stereo not given) :: 390 nM

Exam item: Which measured GI50 value corresponds to CC[C@H](CO)Nc1nc(NCc2ccccc2)n2ncc(C(C)C)c2n1 ?
Marked response: 2150 nM

Exam item: Find the recorded GI50 belonging to O=C(NN1C(=O)CSC12CCCC2)c1[nH]c2ccc(Br)cc2c1-c1ccccc1 and report it.
Marked response: 41000 nM

Exam item: Give its GI50 value. Item: Cc1c2c(nn1C)CSCc1cc(n(C)n1)CSc1cc(c3ccccc3c1)OCCCc1c(C(=O)O)n(C)c3c-2c(Cl)ccc13
Marked response: 4620 nM

Exam item: Item Nc1[nH]nc2nc(-c3cccs3)cc(C(F)(F)F)c12 has what recorded GI50?
Marked response: > 25000 nM

Exam item: For CCCCN(CCCC)c1ccc(C(=N)c2ccc(N(CCCC)CCCC)cc2)cc1 , what is its reported GI50?
Marked response: 396 nM

Exam item: Field request: GI50 | item: COc1ccc(C(=O)c2cc3c(N)c(C(=O)Nc4cccc5ccccc45)sc3nc2C)cc1
Marked response: 285 nM

---

The entries below come with measured GI50 values attached.
Tested on: HL-60(TB) leukemia
Assay: NCI tumour cell line growth inhibition, 48 h

Previously resolved entries follow.
CCc1ccc(NC(=O)COC(=O)c2cc([N+](=O)[O-])ccc2Sc2nnnn2C)cc1 :: 18.8 µM
CCOc1ccccc1N=Nc1c(C)[nH]n(-c2nc(-c3ccccc3)cs2)c1=O :: > 100 µM
Clc1nc(Cl)c2ncn(C/C=C/COc3cccc(OC/C=C/Cn4cnc5c(Cl)nc(Cl)nc54)c3)c2n1 :: 14.7 µM

Then there is this molecule:
Exam item: Suppose we examine the molecule C[C@@H]1CC[C@H]2C(C(O)CCCCC(O)C3=C(C(F)(F)F)O[C@@H]4O[C@@]5(C)CC[C@H]6[C@H](C)CC[C@@H]3[C@@]46OO5)=C(C(F)(F)F)O[C@@H]3O[C@@]4(C)CC[C@@H]1[C@]32OO4 (some centres undefined) ; what GI50 value has been reported?
Marked response: 6.44 µM

---

Tested on: HOP-92 NSCLC
Test: NCI tumour cell line growth inhibition, 48 h
quantity: TGI

Below: 4 compounds and their reported TGI.
COC(=O)C1=CC2C(=O)OC1CC2C#N (centres undefined) :: > 100 µM
O=C(COc1ccc(/C=C2\Oc3ccccc3C2=O)cc1)Nc1nc2c(s1)CCCC2 :: 2.53 µM
CCN(CC)c1ccc2cc(C(=O)Nc3cccc4ccccc34)c(=N)oc2c1 :: > 100 µM
CC[N+]1(C)CCC(O)(c2ccc(Cl)c(Cl)c2)C(C(=O)c2ccc(Cl)c(Cl)c2)C1 (centres undefined) :: > 10 µM

Exam item: Request the reported TGI associated with COc1ccc2c(c1)c(CC(=O)O)c(C)n2C(=O)c1ccc(Cl)cc1
Marked response: > 100 µM

Exam item: Requested read-out: TGI. Entry: CCOP(=O)(OCC)C1CC(n2cc(C)c(=O)[nH]c2=O)OC1CO (centres undefined)
Marked response: > 100 µM
